Entry source: PubChem BioAssay (Tox21)

- method_summary: qHTS assay to identify small molecule antagonists of the estrogen related receptor signaling pathway with the pleiotropic PPARgamma coactivator (PGC) cell viability counter screen (AID 1224822;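 further: viability read after 17.5 h compound exposure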)
- protocol_conditions: ERR/PGC reporter cell line viability counter screen; series mostly up to 46.1 µM
Results filed as inconclusive are left out. Active and inactive are the calls of the source. The call rests on the fitted dose curve; in most records, active means well fitted cell-killing curve with a large enough effect in the repeat runs; inconclusive means weak or mixed curves, or effect the other way; inactive means flat fitted curve, though single readings scatter.
value_type: outcome

- Cc1cnc(NC(=O)C2=C(O)c3ccccc3S(=O)(=O)N2C)s1: inactive
- CCOC(=O)C(C)(C)Oc1ccc(Cl)cc1: inactive
- CC(C)(C)NCC(O)c1ccc(O)c(CO)c1 (stereo not drawn): inactive

###

- method_summary: Human pregnane X receptor (PXR) small molecule agonists, qHTS cell viability counter screen (AID 1346977); further: nearly all actives have a fitted effect of over 50% in size
- protocol_conditions: PXR-Luc HepG2 viability, CellTiter-Fluor, 24 h; series mostly up to 92.4 µM
Inconclusive results are not listed. The source made the active and inactive calls. The call rests on the fitted dose curve; in most records, active means well fitted cell-killing curve with a large enough effect in the repeat runs; inconclusive means weak or mixed curves, or effect the other way; inactive means flat fitted curve, though single readings scatter.
value_type: outcome

As a guide, the following entries are already answered.
* Cc1cnc(NC(=O)C2=C(O)c3ccccc3S(=O)(=O)N2C)s1 | inactive
* CC(=O)/C=C/C1=C(C)CCCC1(C)C | inactive
* C=CCOC(=O)CC(C)C | inactive
* CCCCCCCCCCCCCCCCCC(=O)OCC(O)CO (configuration not stated) | inactive

Which measured outcome value corresponds to `COc1ccc(C(=O)c2ccccc2)c(O)c1` ? inactive

Follow-up entry: `CC(=O)Oc1ccccc1C(=O)O` inactive

###

- method_summary: qHTS RealTime-Glo MT Cell Viability Assay in HEK293 cells - 24 hour (AID 1224886); further: top concentration of the series differs between compounds; nearly all actives have a fitted effect of over 50% in size
- protocol_conditions: RealTime-Glo luminescence; series mostly up to 76.8 µM
Records with an inconclusive call do not appear. Activity calls are given as the source filed them. The call rests on the fitted dose curve; in most records, active means well fitted cell-killing curve with a large enough effect in the repeat runs; inconclusive means weak or mixed curves, or effect the other way; inactive means flat fitted curve, though single readings scatter.
value_type: outcome

As a guide, the following entries are already answered.
• N[C@@H](Cc1c[nH]c2ccc(O)cc12)C(=O)O = inactive
• CC(=O)/C=C/C1=C(C)CCCC1(C)C = inactive
• CCCCOCCOCCOC(C)=O = inactive
• O=C(O)Cc1cccc2ccccc12 = inactive
• c1ccc2[nH]c(-c3cscn3)nc2c1 = inactive

Which measured outcome value corresponds to `CC(=O)CCC(C)C` ? inactive

Follow-up entry: `CCc1cc(C(N)=S)ccn1` inactive

Follow-up entry: `NC(=O)N1c2ccccc2C=Cc2ccccc21` inactive

Follow-up entry: `Cn1cnc2c1c(=O)[nH]c(=O)n2C` inactive

Follow-up entry: `O=C(OCc1ccccc1)c1ccccc1` inactive

Follow-up entry: `CCOCCO` inactive

###

- method_summary: Human pregnane X receptor (PXR) small molecule agonists, qHTS cell viability counter screen (AID 1346977); further: nearly all actives have a fitted effect of over 50% in size
- protocol_conditions: PXR-Luc HepG2 viability, CellTiter-Fluor, 24 h; series mostly up to 92.4 µM
Records with an inconclusive call do not appear. Active and inactive are the calls of the source. Calls come from the whole dose curve; as a rule, active = well fitted cell-killing curve with a large enough effect in the repeat runs; inconclusive = weak or mixed curves, or effect the other way; inactive = flat fitted curve, though single readings scatter.
value_type: outcome

As a guide, the following entries are already answered.
• CN(C)Cc1cc(CN(C)C)c(O)c(CN(C)C)c1 = inactive
• C/C=C/c1ccc(O)c(OC)c1 = inactive
• CCCCCCCC(=O)OCC(O)CO (stereo not given) = inactive
• COc1ccccc1O = inactive
• CCCCNC(=O)NS(=O)(=O)c1ccc(N)cc1 = inactive

Which measured outcome value corresponds to `C=CC(=O)NC(C)(C)CS(=O)(=O)O` ? inactive

Follow-up entry: `NC(=O)c1ccc([N+](=O)[O-])cc1Cl` inactive

Follow-up entry: `CN(C)C=O` inactive

Follow-up entry: `CC(C)(C)CC(C)(C)c1ccc(O)c(-n2nc3ccccc3n2)c1` inactive

Follow-up entry: COCC(C)N (stereo not given) inactive

###

- method_summary: qHTS assay for identifying genotoxic compounds that show differential cytotoxicity against isogenic chicken DT40 cell lines with known DNA damage response pathways - Rev3 mutant cell line (AID 743014); further: nearly all actives have a fitted effect of over 55% in size
- protocol_conditions: chicken DT40 Rev3-/- viability, CellTiter-Glo, 40 h; series mostly up to 68.4 µM
- Description: National Center for Advancing Translational Sciences [NCATS] NIH Chemical Genomics Center [NCGC] U.S. Environmental Protection Agency [EPA] National Institutes of Environmental Health Sciences [NIEHS] National Toxicology Program [NTP] U.S. Food and Drug Administration [FDA] DNA repair pathways play a critical role in cellular homeostasis by repairing DNA damage induced by endogenous processes and xenobiotics. […]
Records with an inconclusive call do not appear. The source made the active and inactive calls. The call rests on the fitted dose curve; in most records, active means well fitted cell-killing curve with a large enough effect in the repeat runs; inconclusive means weak or mixed curves, or effect the other way; inactive means no such curve, though single readings can be large or run the other way.
Write down the outcome that applies. Available outcomes: yes (1) (active), no (0) (inactive)

Check out these entries, answers already filled in.
- O=C1OC(c2ccc(O)cc2)(c2ccc(O)cc2)c2ccccc21: yes (1)
- COc1cc(C=O)ccc1O: no (0)
- COC(=O)c1ccc(C=O)cc1: no (0)

Please indicate how the test categorized `CC(=O)Oc1ccccc1C(=O)O` . no (0)

Follow-up entry: `CC1(C)O[C@@H]2[C@@H](CO[C@@]3(COS(N)(=O)=O)OC(C)(C)O[C@@H]23)O1` no (0)

Follow-up entry: `CCn1cc(C(=O)O)c(=O)c2ccc(C)nc21` no (0)

Follow-up entry: `OCCCc1ccccc1` no (0)

Follow-up entry: `COc1ccc(O)cc1` no (0)

Follow-up entry: `CCN(CC)CCOC(=O)c1ccc(N)cc1` no (0)

Follow-up entry: `CCN1CCCC1=O` no (0)

Follow-up entry: `CCc1cc(C(N)=S)ccn1` no (0)

Follow-up entry: `Cc1c(N(C)C)c(=O)n(-c2ccccc2)n1C` no (0)

Follow-up entry: `Oc1cccc(O)c1` no (0)

Follow-up entry: `NC(=O)c1ccc([N+](=O)[O-])cc1Cl` no (0)

###

- tested_target: Nuclear receptor subfamily 1 group I member 2 (Homo sapiens)
- method_summary: Human pregnane X receptor (PXR) activation by small molecules, qHTS assay (AID 1346985); further: nearly all actives have a fitted effect of over 40% in size
- protocol_conditions: DPX-2 HepG2 CYP3A4-luciferase, 24 h; series mostly up to 38.3 µM
Records with an inconclusive call do not appear. Activity calls are given as the source filed them. Calls come from the whole dose curve; as a rule, active = well fitted activation curve with a large enough effect in the repeat runs; inconclusive = weak or mixed curves; inactive = flat fitted curve, though single readings scatter.
Write down the outcome that applies. Available outcomes: active, inactive

Check out these entries, answers already filled in.
- NCCNc1cccc2ccccc12: inactive
- COc1ccccc1O: inactive

Please indicate how the test categorized `O=C(O)Cc1cccc2ccccc12` . inactive

Follow-up entry: CCCCCCCCCCCCCCCCCC(=O)OCC(O)CO (stereo unspecified) inactive

###

- method_summary: qHTS assay to test for compound auto fluorescence at 535 nm (green) in HEK293 cells (AID 720680)
- protocol_conditions: green autofluorescence 485/535 nm; series mostly up to 91.3 µM
- From the text: U.S. Tox21 Program National Center for Advancing Translational Sciences [NCATS] NIH Chemical Genomics Center [NCGC] U.S. Environmental Protection Agency [EPA] National Institutes of Environmental Health Sciences [NIEHS] National Toxicology Program [NTP] U.S. Food and Drug Administration [FDA] Tox21 Assay Overview: Compound auto fluorescence often interferes with screening of the compound library against various biological targets and signaling pathways. […] This assay includes the green fluorescence data. […]
Active and inactive are the calls of the source. The call rests on the fitted dose curve; in most records, active means well fitted curve in the direction sought with a large enough effect in the repeat runs; inconclusive means weak or mixed curves; inactive means flat fitted curve, though single readings scatter.
value_type: outcome

As a guide, the following entries are already answered.
* NC(=O)N/N=C/c1ccc([N+](=O)[O-])o1 | inactive
* COC(=O)c1ccc(C=O)cc1 | inactive
* CCCCOCCOCCSC#N | inactive
* Nc1cccc(N)c1 | inactive
* CCCCCCCC(=O)OCC(O)CO (centres undefined) | inactive
* CC(=O)OC/C=C(C)/C=C/C=C(C)/C=C/C1=C(C)CCCC1(C)C | inactive
* O=[N+]([O-])c1ccc(O)cc1 | inactive
* NC(=O)N1c2ccccc2C=Cc2ccccc21 | inactive
* O=c1c(-c2ccc(O)cc2)coc2cc(O)cc(O)c12 | inactive
* C#C[C@]1(O)CC[C@H]2[C@@H]3CCC4=CC(=O)CC[C@@H]4[C@H]3CC[C@@]21CC | inactive

Which measured outcome value corresponds to `COC1=CC(=O)C[C@@H](C)[C@]12Oc1c(Cl)c(OC)cc(OC)c1C2=O` ? inactive

Follow-up entry: `CC1=NN(c2ccccc2)C(=O)C1` inactive

Follow-up entry: `C[C@]12C=CC(=O)C=C1CC[C@@H]1[C@@H]2C(=O)C[C@@]2(C)[C@H]1CC[C@]2(O)C(=O)CO` inactive

Follow-up entry: `CCCCNC(=O)NS(=O)(=O)c1ccc(N)cc1` inactive

###

- method_summary: Caspase-3/7 induction in CHO-K1 cells by small molecules, qHTS cell viability counter screen (AID 1346979); further: nearly all actives have a fitted effect of over 35% in size
- protocol_conditions: CellTiter-Fluor fluorescence, 17 h; series mostly up to 92.4 µM
Records with an inconclusive call do not appear. Active and inactive are the calls of the source. Calls come from the whole dose curve; as a rule, active = well fitted cell-killing curve with a large enough effect in the repeat runs; inconclusive = weak or mixed curves, or effect the other way; inactive = no such curve, though single readings can be large or run the other way.
value_type: outcome

As a guide, the following entries are already answered.
- CC(O)COc1ccccc1 (stereo unspecified): inactive
- CCc1cc(C(N)=S)ccn1: inactive
- CCCCNC(=O)NS(=O)(=O)c1ccc(N)cc1: inactive
- CCN1CCCC1=O: inactive
- CCCCCCCCOc1ccc(C(=O)c2ccccc2)c(O)c1: inactive

Which measured outcome value corresponds to `CCCCOCCOCCSC#N` ? inactive

Follow-up entry: `C=C(C)C(N)=O` inactive

Follow-up entry: `CN(C)C=O` inactive

Follow-up entry: `N[C@@H](Cc1c[nH]c2ccccc12)C(=O)O` inactive

Follow-up entry: `COc1ccc(C(=O)c2ccccc2)c(O)c1` inactive
